target: Aurora A (Homo sapiens, UniProt O14965); construct: cell lysates from Jurkat cells (ATCC TIB-152) used; endogenous in cells; assay: Kinobeads assay, Aurora A; details: lysate of pervanadate-treated Jurkat cells, read-out: Inhibition values (IC50) Aur A
Sequence (O14965 whole entry): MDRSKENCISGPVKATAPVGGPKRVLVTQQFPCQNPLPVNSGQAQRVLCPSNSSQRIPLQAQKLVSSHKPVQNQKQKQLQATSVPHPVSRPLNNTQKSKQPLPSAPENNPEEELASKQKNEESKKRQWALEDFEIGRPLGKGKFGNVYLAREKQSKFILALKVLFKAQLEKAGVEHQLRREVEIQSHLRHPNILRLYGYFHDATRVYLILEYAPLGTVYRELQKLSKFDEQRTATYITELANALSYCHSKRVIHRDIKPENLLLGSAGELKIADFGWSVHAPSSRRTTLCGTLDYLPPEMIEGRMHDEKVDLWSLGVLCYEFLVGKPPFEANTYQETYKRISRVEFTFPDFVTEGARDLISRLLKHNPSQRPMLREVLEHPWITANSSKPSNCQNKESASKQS
Provide the recorded IC50 for the entries that follow.

Test smiles	Tested system	IC50
C[C@@H]1COCCN1c1cccc(Cn2ncc3cnc(Nc4cnn(C)c4)nc32)c1	Aurora A (Homo sapiens, UniProt O14965)	1 to 10 µM
O=C1COCCN1c1cc(F)c(F)c(Cn2ncc3cnc(Nc4cnn(CCO)c4)nc32)c1F	Aurora A (Homo sapiens, UniProt O14965)	0.1 to 1 µM
CNCCCn1cc(Nc2ncc3cnn(Cc4cc(F)cc(N5CCOCC5=O)c4)c3n2)cn1	Aurora A (Homo sapiens, UniProt O14965)	< 0.1 µM

Query: Quick one: IC50 of `Cn1cc(Nc2ncc3cnn(Cc4cc(F)cc(N5CCNCC5)c4)c3n2)cn1` ?
Result: 0.1 to 1 µM
